# cell viability annotations
# System: NOMO1
# Assay info: cell viability relative to DMSO control; higher = less cytotoxic
# Study conditions: RPMI 5 mM glucose + 10% FBS; 48 h; 0.569 µM
Give the number; % is assumed, so skip it.

Consider the reported cell viability for these molecules:
COc1cc(N2CCC(C(N)=O)CC2)ccc1Nc1nc(N)c(Cl)c(Nc2ccccc2[S+](=O)([O-])C(C)C)n1
92
COc1cc2nccc(Oc3ccc(NC(=O)C4(C(=O)Nc5ccc(F)cc5)CC4)cc3)c2cc1OC
95.1
Cc1ccc(C(C)(O)c2nc3ccccc3s2)c(C)c1 (centres undefined)
110

Now consider the entry below.
What value of cell viability has been reported for the following molecule? CN(N=O)C(=O)N[C@H]1C(O)OC(CO)[C@@H](O)[C@@H]1O (some centres undefined)
85.7

====

# Test system: NOMO1
# Assay info: cell viability relative to DMSO control; higher = less cytotoxic
# Study conditions: RPMI 5 mM glucose + 10% FBS; 48 h; 0.00234 µM
Readout name: cell viability (%)
Give the number; % is assumed, so skip it.

CC[C@H]1OC(=O)[C@H](C)[C@@H](O[C@H]2C[C@@](C)(OC)[C@@H](O)[C@H](C)O2)[C@H](C)[C@@H](O[C@@H]2O[C@@H](C)C[C@H](N(C)C)[C@H]2O)[C@](C)(O)C[C@@H](C)C(=O)[C@H](C)[C@@H](O)[C@]1(C)O
81

What value of cell viability has been reported for the following compound? C[C@]\1(CCS\C(=N1)N)C2=CC(=C(F)C=C2F)C3=CN=CN=C3
107

What value of cell viability has been reported for the following compound? CCCCCCCCCCCC(CC1OC(=O)C1CCCCCC)OC(=O)C(CC(C)C)NC=O (stereo not drawn)
104

What value of cell viability has been reported for the following compound? COc1nc(-c2ccc3c(c2)OCO3)n(-c2ccc(NC(=O)CSc3ccccc3)cc2)n1
108

====

# Tested on: P12-Ichikawa
# Assay info: cell viability relative to DMSO control; higher = less cytotoxic
# Study conditions: HPLM + 10% dialyzed FBS; 48 h; 0.19 µM
Readout name: cell viability (%)
Give the number; % is assumed, so skip it.

Cc1[nH]c(/C=C2\C(=O)Nc3ccc([S+](=O)([O-])N(C)c4cccc(Cl)c4)cc32)c(C)c1C(=O)N1CCN(C)CC1
127
FC(F)(F)c1ccc(Nc2nc3cc(Oc4ccnc(-c5ncc(C(F)(F)F)[nH]5)c4)ccc3[nH]2)cc1
115
C[C@@H]1CC[C@@]2(OC1)O[C@H]3C[C@H]4[C@@H]5C/C=C6/C[C@H](CC[C@]6(C)[C@H]5CC[C@]4(C)[C@H]3[C@@H]2C)O[C@@H]7O[C@H](CO)[C@@H](O[C@@H]8O[C@@H](C)[C@H](O)[C@@H](O)[C@H]8O)[C@H](O)[C@H]7O[C@@H]9O[C@@H](C)[C@H](O)[C@@H](O)[C@H]9O
130

Now consider the entry below.
What value of cell viability has been reported for the following compound? Cc1cc2c(C(C)C)c(O)c(O)c(C=O)c2c(O)c1-c1c(C)cc2c(C(C)C)c(O)c(O)c(C=O)c2c1O
99.6

====

# System: P12-Ichikawa
# Assay info: cell viability relative to DMSO control; higher = less cytotoxic
# Study conditions: RPMI 5 mM glucose + 10% FBS; 48 h; 5.12 µM
# cell viability annotations
Give the number; % is assumed, so skip it.

Consider the reported cell viability for these compounds:
COc1nc(-c2ccc3c(c2)OCO3)n(-c2ccc(NC(=O)CSc3ccccc3)cc2)n1
102
CCC1=C[C@@H]2CN(C1)Cc1c([nH]c3ccccc13)[C@@](C(=O)OC)(c1cc3c(cc1OC)N(C)[C@H]1[C@@](O)(C(=O)OC)[C@H](OC(C)=O)[C@]4(CC)C=CCN5CC[C@]31[C@@H]54)C2
11
Cc1ccc(NC(=O)C2(c3ccc4c(c3)OC(F)(F)O4)CC2)nc1-c1cccc(C(=O)O)c1
11.1
CCNC(=O)C[C@@H]1\N=C(C2=CC=C(Cl)C=C2)/C3=C(C=CC(=C3)OC)[N]4C(=NN=C14)C
76
CC(C)C[C@H](CN)CC(=O)O
92.3

What value of cell viability has been reported for the following compound? NC1CCC(N[C@@H]2C[C@H]2c2ccccc2)CC1 (some centres undefined)
100

What value of cell viability has been reported for the following compound? CC(C)(C)/[N+]([O-])=C/c1ccc([S+](=O)([O-])[O][Na])cc1[S+](=O)([O-])[O][Na]
126

What value of cell viability has been reported for the following compound? Nc1ccccc1NC(=O)c1ccc(CNc2nccc(-c3cccnc3)n2)cc1
9.5

What value of cell viability has been reported for the following compound? C[C@]\1(CCS\C(=N1)N)C2=CC(=C(F)C=C2F)C3=CN=CN=C3
117

What value of cell viability has been reported for the following compound? COc1cc(N2CCC(O)CC2)ccc1Nc1cc(Nc2ccccc2[S+](=O)([O-])C(C)C)c2cc[nH]c2n1
80.8

What value of cell viability has been reported for the following compound? O=C(NC1CCNCC1)c1n[nH]cc1NC(=O)c1c(Cl)cccc1Cl
12.9

What value of cell viability has been reported for the following compound? COc1cc2nccc(Oc3ccc(NC(=O)Nc4cc(C)on4)c(Cl)c3)c2cc1OC
110

What value of cell viability has been reported for the following compound? COc1cc2nccc(Oc3ccc(NC(=O)C4(C(=O)Nc5ccc(F)cc5)CC4)cc3)c2cc1OC
106

What value of cell viability has been reported for the following compound? O=C/1\C=C(/OC(=C1)/C2=C3SC4=C(SC3=CC=C2)C=CC=C4)N5CCOCC5
93.1

====

# Tested on: P12-Ichikawa
# Assay info: cell viability relative to DMSO control; higher = less cytotoxic
# Study conditions: RPMI 5 mM glucose + 10% dialyzed FBS; 48 h; 0.00702 µM
# cell viability annotations
Give the number; % is assumed, so skip it.

Consider the reported cell viability for these molecules:
C#Cc1cccc(Nc2ncnc3cc(OCCOC)c(OCCO)cc23)c1
118
Cc1cc(O)c2c3c4c(cc(O)c13)C(C)(C)C(=O)c1c(O)cc(O)c(c1-4)C2=O
117
Cc1ccc(NC(=O)C2(c3ccc4c(c3)OC(F)(F)O4)CC2)nc1-c1cccc(C(=O)O)c1
97

Now consider the entry below.
What cell viability appears in the records for this molecule with P12-Ichikawa? O=[N+]([O-])c1cn2c(n1)OC[C@@H](OCc1ccc(OC(F)(F)F)cc1)C2
111

====

# Test system: NOMO1
# Assay info: cell viability relative to DMSO control; higher = less cytotoxic
# Study conditions: RPMI 5 mM glucose + 10% FBS; 48 h; 0.19 µM
# cell viability annotations
Give the number; % is assumed, so skip it.

Consider the reported cell viability for these compounds:
C[C@H]([C@H](O)CCC(C)(C)O)[C@H]1CC[C@@]2(O)C/3=C/C(=O)[C@@H]4C[C@@H](O)[C@@H](O)C[C@]4(C)[C@H]3CC[C@]12C
112
NC(=O)c1ccc(-c2nc(-c3ccc4c(c3)OCCO4)c(-c3ccccn3)[nH]2)cc1
119
CCCCCCCCCCCC(CC1OC(=O)C1CCCCCC)OC(=O)C(CC(C)C)NC=O (stereo unspecified)
97.8

What cell viability appears in the records for this compound with NOMO1? CCNC(=O)C[C@@H]1\N=C(C2=CC=C(Cl)C=C2)/C3=C(C=CC(=C3)OC)[N]4C(=NN=C14)C
105

What cell viability appears in the records for this compound with NOMO1? C[C@]\1(CCS\C(=N1)N)C2=CC(=C(F)C=C2F)C3=CN=CN=C3
101

What cell viability appears in the records for this compound with NOMO1? O=C(NC1CCOCC1)c1ccc(-c2cc(-c3c[nH]nc3-c3ccccn3)ccn2)cc1
104

====

# System: SEM cells
# Assay info: cell viability relative to DMSO control; higher = less cytotoxic
# Study conditions: RPMI 5 mM glucose + 10% FBS; 48 h; 0.569 µM
Readout name: cell viability (%)
Give the number; % is assumed, so skip it.

COc1ccc(/C=C\c2cc(OC)c(OC)c(OC)c2)cc1O
7.3
O=C(NC1CCOCC1)c1ccc(-c2cc(-c3c[nH]nc3-c3ccccn3)ccn2)cc1
104
Cc1c[nH]c(/C=C2\C(=O)Nc3ccccc32)c1CCC(=O)O
50.6
Clc1cccc(-c2nnnn2Cc2cccnc2)c1Cl
74.6
CC(C)C[C@H](CN)CC(=O)O
104
O=C([O-])Cc1ccccc1Nc1c(Cl)cccc1Cl
111
NC1CCC(N[C@@H]2C[C@H]2c2ccccc2)CC1 (stereo not given in full)
146
CC1SC/2=C(C(O)=O)/C(=O)C3=CC(=C(C=C3N12)N4CCN(CC4)C\C5=C(C)\OC(=O)O5)F (stereo not given)
132

What value of cell viability has been reported for the following compound? COc1cc2nccc(Oc3ccc(NC(=O)Nc4cc(C)on4)c(Cl)c3)c2cc1OC
73.9

What value of cell viability has been reported for the following compound? C[C@H](NC(=O)C(=O)Nc1ccccc1C(C)(C)C)C(=O)N[C@@H](CC(=O)O)C(=O)COc1c(F)c(F)cc(F)c1F
127
